- Tested on: LS-180 (Colorectal Carcinoma)
- PROTOCOL TEXT: Bliss excess, mean over the matrix (fraction); higher = more synergy
Catalogue of Bliss excess values

The compound listed as COc1nnc2ccc(N3CCC(c4ccc(OCCN5CCN(C)C(=O)[C@H]5C)cc4)CC3)nn12 [AZD5153] + Cn1cnc2c(F)c(Nc3ccc(Br)cc3Cl)c(C(=O)NOCCO)cc21 [Selumetinib] (first compound max 1 µM, 7x7, partner max 10 µM) has a reported Bliss excess of -0.0284

The compound listed as CN(CCO)CC[C@H](CSc1ccccc1)Nc1ccc(S(=O)(=O)NC(=O)c2ccc(N3CCC([C@@H](O)c4ccccc4-c4ccc(Cl)cc4)CC3)cc2)cc1S(=O)(=O)C(F)(F)F [AZD4320] + C[C@@H](Nc1cc(F)cc(F)c1)c1cc(C(=O)N(C)C)cc2c(=O)cc(N3CCOCC3)oc12 [AZD8186] (first compound max 1 µM, 7x7, partner max 3 µM) has a reported Bliss excess of -0.0535

---

- Tested on: CaR-1 (Colorectal Carcinoma)
- PROTOCOL TEXT: Bliss excess, mean over the matrix (fraction); higher = more synergy
PROPERTY MEASURED: Bliss excess
Please reply with the number alone, leaving off any unit.

Consider the following illustrative entries.
COMPOUND | Bliss excess
COc1nnc2ccc(N3CCC(c4ccc(OCCN5CCN(C)C(=O)[C@H]5C)cc4)CC3)nn12 [AZD5153] + C[C@@H]1COCCN1C2=NC(=NC(=C2)C3(CC3)[S@](=N)(=O)C)C4=C5C=CNC5=NC=C4 [AZD6738] (first compound max 1 µM, 7x7, partner max 10 µM) | 0.0411
CCc1c2c(nc3ccc(O)cc13)-c1cc3c(c(=O)n1C2)COC(=O)[C@]3(O)CC [SN-38] + O=C(c1cc(Cc2n[nH]c(=O)c3ccccc23)ccc1F)N1CCN(C(=O)C2CC2)CC1 [Olaparib] (first compound max 0.3 µM, 7x7, partner max 10 µM) | 0.0221
COc1nnc2ccc(N3CCC(c4ccc(OCCN5CCN(C)C(=O)[C@H]5C)cc4)CC3)nn12 [AZD5153] + Cc1c2c(nn1C)CSCc1cc(n(C)n1)CSc1cc(c3ccccc3c1)OCCCc1c(C(=O)O)n(C)c3c-2c(Cl)ccc13 [AZD5991] (first compound max 1 µM, 7x7, partner max 1 µM) | -0.0548

The compound listed as N#Cc1cnc(Nc2cc(NC[C@H]3CNCCO3)c(C(F)(F)F)cn2)cn1 [SRA737] + Nc1ccn([C@@H]2O[C@H](CO)[C@@H](O)C2(F)F)c(=O)n1 [Gemcitabine] (first compound max 10 µM, 7x7, partner max 0.3 µM) has a reported Bliss excess of -0.0167

The compound listed as CN(C)CCCOc1ccc(-c2ccc3ncc4c(c3c2)n(C2CCOCC2)c(=O)n4C)cn1 [AZD0156] + C[C@@H]1COCCN1C2=NC(=NC(=C2)C3(CC3)[S@](=N)(=O)C)C4=C5C=CNC5=NC=C4 [AZD6738] (first compound max 1 µM, 7x7, partner max 10 µM) has a reported Bliss excess of -0.0449

The compound listed as Cc1c2c(nn1C)CSCc1cc(n(C)n1)CSc1cc(c3ccccc3c1)OCCCc1c(C(=O)O)n(C)c3c-2c(Cl)ccc13 [AZD5991] + Nc1ccn([C@@H]2O[C@H](CO)[C@@H](O)C2(F)F)c(=O)n1 [Gemcitabine] (first compound max 1 µM, 7x7, partner max 0.3 µM) has a reported Bliss excess of -0.0383

---

- Test system: CaR-1 (Colorectal Carcinoma)
- PROTOCOL TEXT: combination Emax (second highest fraction inhibited in the dose matrix, 72 h); higher = more inhibition; extreme values may be limits of the assay
Returns one of satisfied or not satisfied; satisfied when combination Emax is >= 0.3.

Ask | Reported combination Emax at or above 0.3? Cc1c2c(nn1C)CSCc1cc(n(C)n1)CSc1cc(c3ccccc3c1)OCCCc1c(C(=O)O)n(C)c3c-2c(Cl)ccc13 [AZD5991] + CN(C)CCCOc1ccc(-c2ccc3ncc4c(c3c2)n(C2CCOCC2)c(=O)n4C)cn1 [AZD0156] (first compound max 1 µM, 7x7, partner max 1 µM)
Reply | not satisfied

---

- System: KYSE-520 (Esophageal Squamous Cell Carcinoma)
- PROTOCOL TEXT: Bliss excess, mean over the matrix (fraction); higher = more synergy
Catalogue of Bliss excess values
Please reply with the number alone, leaving off any unit.

Consider the following illustrative entries.
COMPOUND | SYSTEM UNDER TEST | Bliss excess
Cc1c2c(nn1C)CSCc1cc(n(C)n1)CSc1cc(c3ccccc3c1)OCCCc1c(C(=O)O)n(C)c3c-2c(Cl)ccc13 [AZD5991] + CN(C)CCCOc1ccc(-c2ccc3ncc4c(c3c2)n(C2CCOCC2)c(=O)n4C)cn1 [AZD0156] (first compound max 1 µM, 7x7, partner max 1 µM) | KYSE-520 (Esophageal Squamous Cell Carcinoma) | 0.0045
C[C@@H]1COCCN1c1cc(C2([S@](C)(=N)=O)CC2)nc(-c2ccnc3[nH]ccc23)n1 [AZD6738] + O=C(c1cc(Cc2n[nH]c(=O)c3ccccc23)ccc1F)N1CCN(C(=O)C2CC2)CC1 [Olaparib] (first compound max 10 µM, 7x7, partner max 10 µM) | KYSE-520 (Esophageal Squamous Cell Carcinoma) | -0.0402
NC1(C(=O)N[C@@H](CCO)c2ccc(Cl)cc2)CCN(c2ncnc3[nH]ccc23)CC1 [Capivasertib] + C[C@@H]1COCCN1C2=NC(=NC(=C2)C3(CC3)[S@](=N)(=O)C)C4=C5C=CNC5=NC=C4 [AZD6738] (first compound max 10 µM, 7x7, partner max 10 µM) | KYSE-520 (Esophageal Squamous Cell Carcinoma) | -0.0371

Okay, now this compound:
Record CCN(CCO)CCCOc1ccc2c(Nc3cc(CC(=O)Nc4cccc(F)c4)[nH]n3)ncnc2c1 [AZD2811] + C[C@@H]1COCCN1C2=NC(=NC(=C2)C3(CC3)[S@](=N)(=O)C)C4=C5C=CNC5=NC=C4 [AZD6738] (first compound max 1 µM, 7x7, partner max 10 µM) has KYSE-520 (Esophageal Squamous Cell Carcinoma) Bliss excess equal to -0.0323

---

- Test system: LB831-BLC (Bladder Carcinoma)
- PROTOCOL TEXT: combination Emax (second highest fraction inhibited in the dose matrix, 72 h); higher = more inhibition; extreme values may be limits of the assay
PROPERTY MEASURED: combination Emax
Please reply with the number alone, leaving off any unit.

Consider the following illustrative entries.
COMPOUND | combination Emax
CC(=O)c1c(C)c2cnc(Nc3ccc(N4CCNCC4)cn3)nc2n(C2CCCC2)c1=O [Palbociclib] + Cn1cnc2c(F)c(Nc3ccc(Br)cc3Cl)c(C(=O)NOCCO)cc21 [Selumetinib] (first compound max 10 µM, 7x7, partner max 10 µM) | 0.223
Cc1nc(Nc2ncc(C(=O)Nc3c(C)cccc3Cl)s2)cc(N2CCN(CCO)CC2)n1 [Dasatinib] + CC(=O)Nc1cccc(-n2c(=O)n(C3CC3)c(=O)c3c(Nc4ccc(I)cc4F)n(C)c(=O)c(C)c32)c1 [Trametinib] (first compound max 2 µM, 7x7, partner max 1 µM) | 0.493
CC1(C)CCC(CN2CCN(c3ccc(C(=O)NS(=O)(=O)c4ccc(NCC5CCOCC5)c([N+](=O)[O-])c4)c(Oc4cnc5[nH]ccc5c4)c3)CC2)=C(c2ccc(Cl)cc2)C1 [Venetoclax] + CN(C)CCCOc1ccc(-c2ccc3ncc4c(c3c2)n(C2CCOCC2)c(=O)n4C)cn1 [AZD0156] (first compound max 1 µM, 7x7, partner max 1 µM) | 0.228

Okay, now this compound:
The compound listed as CC1(C)CCC(CN2CCN(c3ccc(C(=O)NS(=O)(=O)c4ccc(NCC5CCOCC5)c([N+](=O)[O-])c4)c(Oc4cnc5[nH]ccc5c4)c3)CC2)=C(c2ccc(Cl)cc2)C1 [Venetoclax] + C[C@@H]1COCCN1C2=NC(=NC(=C2)C3(CC3)[S@](=N)(=O)C)C4=C5C=CNC5=NC=C4 [AZD6738] (first compound max 1 µM, 7x7, partner max 10 µM) has a reported combination Emax of 0.466

---

- Test system: Hs-578-T (Breast Carcinoma)
- PROTOCOL TEXT: Bliss excess, mean over the matrix (fraction); higher = more synergy
PROPERTY MEASURED: Bliss excess
Please reply with the number alone, leaving off any unit.

Consider the following illustrative entries.
COMPOUND | QUANTITATIVE RESULT
C=CCn1c(=O)c2cnc(Nc3ccc(N4CCN(C)CC4)cc3)nc2n1-c1cccc(C(C)(C)O)n1 [AZD1775] + C1CN(CCC1(C(=O)N[C@@H](CCO)C2=CC=C(C=C2)Cl)N)C3=NC=NC4=C3C=CN4 [Capivasertib] (first compound max 3 µM, partner max 3 µM) | -0.102
Cc1c2c(nn1C)CSCc1cc(n(C)n1)CSc1cc(c3ccccc3c1)OCCCc1c(C(=O)O)n(C)c3c-2c(Cl)ccc13 [AZD5991] + Nc1ccn([C@@H]2O[C@H](CO)[C@@H](O)C2(F)F)c(=O)n1 [Gemcitabine] (first compound max 1 µM, 7x7, partner max 0.3 µM) | 0.0298
CN(CCO)CC[C@H](CSc1ccccc1)Nc1ccc(S(=O)(=O)NC(=O)c2ccc(N3CCC([C@@H](O)c4ccccc4-c4ccc(Cl)cc4)CC3)cc2)cc1S(=O)(=O)C(F)(F)F [AZD4320] + Nc1ccn([C@@H]2O[C@H](CO)[C@@H](O)C2(F)F)c(=O)n1 [Gemcitabine] (first compound max 1 µM, 7x7, partner max 0.3 µM) | 0.14

The compound listed as C[C@@H](Oc1cc(-c2cnn(C3CCNCC3)c2)cnc1N)c1c(Cl)ccc(F)c1Cl [Crizotinib] + CC1=C(C(=CC=C1)Cl)NC(=O)C2=CN=C(S2)NC3=CC(=NC(=N3)C)N4CCN(CC4)CCO [Dasatinib] (first compound max 10 µM, 7x7, partner max 2 µM) has a reported Bliss excess of 0.0455

The compound listed as CN(CCO)CC[C@H](CSc1ccccc1)Nc1ccc(S(=O)(=O)NC(=O)c2ccc(N3CCC([C@@H](O)c4ccccc4-c4ccc(Cl)cc4)CC3)cc2)cc1S(=O)(=O)C(F)(F)F [AZD4320] + CC(=O)O[C@H]1C(=O)[C@@]2(C)[C@H]([C@H](OC(=O)c3ccccc3)[C@]3(O)C[C@H](OC(=O)[C@H](O)[C@@H](NC(=O)c4ccccc4)c4ccccc4)C(C)=C1C3(C)C)[C@]1(OC(C)=O)CO[C@@H]1C[C@@H]2O [Paclitaxel] (first compound max 1 µM, 7x7, partner max 3 µM) has a reported Bliss excess of 0.047

The compound listed as C=CCn1c(=O)c2cnc(Nc3ccc(N4CCN(C)CC4)cc3)nc2n1-c1cccc(C(C)(C)O)n1 [AZD1775] + O=C(c1cc(Cc2n[nH]c(=O)c3ccccc23)ccc1F)N1CCN(C(=O)C2CC2)CC1 [Olaparib] (first compound max 1 µM, partner max 10 µM) has a reported Bliss excess of -0.0965

The compound listed as Cc1cc2ncnn2cc1Nc1ncc2c(n1)n(C1CCOCC1)c(=O)n2C [AZD7648] + COc1cc([C@@H]2c3cc4c(cc3[C@@H](O[C@@H]3O[C@@H]5CO[C@@H](C)O[C@H]5[C@H](O)[C@H]3O)[C@H]3COC(=O)[C@H]23)OCO4)cc(OC)c1O [Etoposide] (first compound max 10 µM, 7x7, partner max 10 µM) has a reported Bliss excess of 0.0777

The compound listed as CC(=O)c1c(C)c2cnc(Nc3ccc(N4CCNCC4)cn3)nc2n(C2CCCC2)c1=O [Palbociclib] + CC1(C)CCC(CN2CCN(c3ccc(C(=O)NS(=O)(=O)c4ccc(NCC5CCOCC5)c([N+](=O)[O-])c4)c(Oc4cnc5[nH]ccc5c4)c3)CC2)=C(c2ccc(Cl)cc2)C1 [Venetoclax] (first compound max 10 µM, 7x7, partner max 1 µM) has a reported Bliss excess of -0.0447

The compound listed as C[C@@H]1COCCN1c1cc(C2([S@](C)(=N)=O)CC2)nc(-c2ccnc3[nH]ccc23)n1 [AZD6738] + Nc1ccn([C@@H]2O[C@H](CO)[C@@H](O)C2(F)F)c(=O)n1 [Gemcitabine] (first compound max 10 µM, 7x7, partner max 0.3 µM) has a reported Bliss excess of 0.012

The compound listed as N#Cc1cnc(Nc2cc(NC[C@H]3CNCCO3)c(C(F)(F)F)cn2)cn1 [SRA737] + C=CCn1c(=O)c2cnc(Nc3ccc(N4CCN(C)CC4)cc3)nc2n1-c1cccc(C(C)(C)O)n1 [AZD1775] (first compound max 10 µM, partner max 1 µM) has a reported Bliss excess of 0.0771

The compound listed as C=CCn1c(=O)c2cnc(Nc3ccc(N4CCN(C)CC4)cc3)nc2n1-c1cccc(C(C)(C)O)n1 [AZD1775] + C[C@@H]1COCCN1C2=NC(=NC(=C2)C3(CC3)[S@](=N)(=O)C)C4=C5C=CNC5=NC=C4 [AZD6738] (first compound max 1 µM, partner max 10 µM) has a reported Bliss excess of -0.0127

The compound listed as COc1cccc(OCCCN)c1-c1cc(Nc2cnc(C#N)cn2)n[nH]1 [Prexasertib] + O=C(c1cc(Cc2n[nH]c(=O)c3ccccc23)ccc1F)N1CCN(C(=O)C2CC2)CC1 [Olaparib] (first compound max 1 µM, 7x7, partner max 10 µM) has a reported Bliss excess of -0.0324

The compound listed as Cc1c2c(nn1C)CSCc1cc(n(C)n1)CSc1cc(c3ccccc3c1)OCCCc1c(C(=O)O)n(C)c3c-2c(Cl)ccc13 [AZD5991] + CCN(CCO)CCCOc1ccc2c(Nc3cc(CC(=O)Nc4cccc(F)c4)[nH]n3)ncnc2c1 [AZD2811] (first compound max 1 µM, 7x7, partner max 1 µM) has a reported Bliss excess of 0.0487
